Data origin: the array DNA melting data of Ke et al.

# protocolDescription: melting temperature; melt of duplexes
# setupConditions: sodium 0.0675 M; strand 1 µM
I'd be grateful if you could share measured Tm for these entries.
Numbers only, in °C.

Go through the items and report each one's Tm.
1. CGACGTGCACGATGTGCTG+CAGCACATCACGCACGTCG ((((((((..(((((((((+)))))))))..))))))))
2. CGACGTGCTCAATGTGCTG+CAGCACATGCGGCACGTCG ((((((((...((((((((+))))))))...))))))))
3. CGACGTGCTGGATGTGCTG+CAGCACATGAGGCACGTCG ((((((((...((((((((+))))))))...))))))))
4. CGACGTGCTGAATGTGCTG+CAGCACATTCGGCACGTCG ((((((((.((((((((((+)))))))))).))))))))

Reply text:
[51.9, 49.4, 54, 60.6]

Below are some substances; for each one, tell me its Tm.
1. CGACGTGCAATATGTGCTG+CAGCACATGCAGCACGTCG ((((((((...((((((((+))))))))...))))))))
2. CGACGTGCGCAATGTGCTG+CAGCACATACAGCACGTCG ((((((((...((((((((+))))))))...))))))))
3. CGACGTGCAGCATGTGCTG+CAGCACATGCGGCACGTCG ((((((((.((((((((((+)))))))))).))))))))

Reply text:
1. 52.1
2. 51.4
3. 61.6

###

# protocolDescription: melting temperature; melt of duplexes
# setupConditions: sodium 0.0675 M; strand 1 µM
valueType: Tm (°C)
Answers are plain numbers, in °C.

CGACGTGCAGTATGTGCTG+CAGCACATTACGCACGTCG ((((((((...((((((((+))))))))...))))))))
52.1
CGACGTGCAGAATGTGCTG+CAGCACATCTTGCACGTCG (((((((((..((((((((+))))))))..)))))))))
52.3
CGACGTGCGGCATGTGCTG+CAGCACATAAGGCACGTCG ((((((((...((((((((+))))))))...))))))))
51.3
CGACGTGCTGTATGTGCTG+CAGCACATCTTGCACGTCG ((((((((...((((((((+))))))))...))))))))
49.9
CGACGTGCCAGATGTGCTG+CAGCACATCCTGCACGTCG ((((((((..(((((((((+)))))))))..))))))))
54.3
CGACGTGCTCGATGTGCTG+CAGCACATGCTGCACGTCG ((((((((...((((((((+))))))))...))))))))
47

Please examine the following record next.
Inquiry: Tell me the measured Tm of CGACGTGCACAATGTGCTG+CAGCACATTAGGCACGTCG ((((((((..(((((((((+)))))))))..)))))))) , please.
Reply text: 50.6

###

# protocolDescription: melting temperature; melt of duplexes
# setupConditions: sodium 0.0675 M; strand 1 µM
Please go through the items and note down their Tm.
Give bare numbers, in °C.

CGACGTGCCACATGTGCTG+CAGCACATTTGGCACGTCG ((((((((((.((((((((+)))))))).))))))))))
57.6
CGACGTGCCAGATGTGCTG+CAGCACATCTTGCACGTCG ((((((((.((((((((((+)))))))))).))))))))
57

I'm hoping you can list Tm for every substance here, please.
1. CGACGTGCTATATGTGCTG+CAGCACATTATGCACGTCG ((((((((...((((((((+))))))))...))))))))
2. CGACGTGCCGTATGTGCTG+CAGCACATTAGGCACGTCG (((((((((..((((((((+))))))))..)))))))))

Reply text:
[51.6, 57.1]
